Target: PI3K (Homo sapiens, UniProt P42336)
Sequence (P42336 whole entry): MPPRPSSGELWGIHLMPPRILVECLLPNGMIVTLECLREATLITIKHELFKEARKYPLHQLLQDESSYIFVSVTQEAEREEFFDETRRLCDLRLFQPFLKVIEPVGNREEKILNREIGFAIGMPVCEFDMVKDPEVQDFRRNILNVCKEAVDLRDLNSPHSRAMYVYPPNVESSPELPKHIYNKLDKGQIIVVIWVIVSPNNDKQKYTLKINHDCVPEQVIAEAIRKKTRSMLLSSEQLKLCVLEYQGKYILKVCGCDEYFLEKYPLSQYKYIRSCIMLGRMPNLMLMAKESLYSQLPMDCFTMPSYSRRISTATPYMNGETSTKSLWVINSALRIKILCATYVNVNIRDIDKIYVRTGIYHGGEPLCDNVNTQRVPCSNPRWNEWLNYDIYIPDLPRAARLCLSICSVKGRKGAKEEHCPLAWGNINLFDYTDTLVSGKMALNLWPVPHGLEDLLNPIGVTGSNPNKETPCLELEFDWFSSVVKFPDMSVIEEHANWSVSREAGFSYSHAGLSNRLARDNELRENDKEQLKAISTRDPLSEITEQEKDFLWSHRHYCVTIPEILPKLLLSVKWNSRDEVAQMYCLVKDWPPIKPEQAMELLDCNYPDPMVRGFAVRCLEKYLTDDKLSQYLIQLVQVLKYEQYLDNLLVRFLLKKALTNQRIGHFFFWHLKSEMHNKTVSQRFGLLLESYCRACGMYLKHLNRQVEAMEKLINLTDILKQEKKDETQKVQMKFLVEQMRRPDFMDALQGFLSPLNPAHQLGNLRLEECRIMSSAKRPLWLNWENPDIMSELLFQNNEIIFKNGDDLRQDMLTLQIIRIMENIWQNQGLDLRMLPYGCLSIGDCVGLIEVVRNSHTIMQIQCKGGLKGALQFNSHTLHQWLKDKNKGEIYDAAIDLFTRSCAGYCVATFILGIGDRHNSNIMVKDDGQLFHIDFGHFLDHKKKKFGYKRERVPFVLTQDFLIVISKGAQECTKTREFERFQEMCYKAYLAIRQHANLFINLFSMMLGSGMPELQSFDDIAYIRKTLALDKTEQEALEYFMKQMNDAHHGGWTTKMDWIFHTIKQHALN
Sequence (P27986 whole entry partner): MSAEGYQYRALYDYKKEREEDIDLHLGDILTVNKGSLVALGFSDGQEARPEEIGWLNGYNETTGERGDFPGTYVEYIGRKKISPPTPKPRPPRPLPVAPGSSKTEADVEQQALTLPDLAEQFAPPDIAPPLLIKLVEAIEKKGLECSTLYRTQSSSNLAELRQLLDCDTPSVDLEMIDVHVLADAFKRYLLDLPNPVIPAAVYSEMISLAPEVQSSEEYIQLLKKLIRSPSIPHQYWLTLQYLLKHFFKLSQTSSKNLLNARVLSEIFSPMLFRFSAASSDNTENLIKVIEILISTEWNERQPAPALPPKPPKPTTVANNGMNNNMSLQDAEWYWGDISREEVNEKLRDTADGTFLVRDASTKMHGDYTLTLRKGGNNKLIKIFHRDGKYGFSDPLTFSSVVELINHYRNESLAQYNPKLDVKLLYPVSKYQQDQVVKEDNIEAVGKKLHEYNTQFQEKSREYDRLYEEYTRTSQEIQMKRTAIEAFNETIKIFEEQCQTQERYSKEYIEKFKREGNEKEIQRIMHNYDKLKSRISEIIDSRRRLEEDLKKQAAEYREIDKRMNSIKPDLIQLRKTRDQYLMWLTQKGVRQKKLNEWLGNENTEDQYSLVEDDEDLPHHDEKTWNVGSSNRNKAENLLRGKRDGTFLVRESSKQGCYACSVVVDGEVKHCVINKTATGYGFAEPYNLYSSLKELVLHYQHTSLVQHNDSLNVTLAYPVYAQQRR
Test: Fluorescence polarization assay for PI3K
Assay type: biochemical
Settings: PI3Kα; read-out: PI3Kα IC50
The following compounds are shown together with reported IC50 values.
Express your answer in nM, writing the number without its unit.

Some solved entries appear below for comparison.
INSERT INTO measurements (compound, recorded_number) VALUES
  ('Nc1ccc(-c2nc(N3CCOCC3)c3cnn(C4CCN(Cc5ccccc5)CC4)c3n2)cc1F [Compound 347]', 1650),
  ('COC(=O)N1CCC(n2ncc3c(N4CCOC(C)C4)nc(-c4ccc(NC(=O)Nc5ccccc5)cc4)nc32)CC1 (stereo not shown) [Compound 848]', 60),
  ('CNC(=O)Nc1ccc(-c2nc(N3CCOCC3)c3cnn(C4CCN(C(=O)c5ccc(Cl)cc5)CC4)c3n2)cc1 [Example 362]', 42),
  ('CNC(=O)Nc1ccc(-c2nc(N3CCOCC3)c3cnn(C4CCN(C(=O)C(F)(F)F)CC4)c3n2)cc1 [Compound 763]', 154),
  ('CN1CCC(C(=O)Nc2ccc(-c3nc(N4CCOCC4)c4cn[nH]c4n3)cc2)CC1 [Compound 284]', 885);

Item c1ccc(-n2ncc3c(N4CCOCC4)nc(-c4ccc5[nH]ncc5c4)nc32)cc1 [Example 432] has what recorded IC50?
440

Item NCCNC(=O)Nc1ccc(-c2nc(N3CCOCC3)c3cnn(C4CCN(Cc5ccccc5)CC4)c3n2)cc1 [Example 267] has what recorded IC50?
14

---

Test system: breast line MDA468
Assay: In vitro cell culture growth assay (MTS), MDA468
Format: cell-based, human
Settings: Homo sapiens, 72 h, MDA468 cells, three days after drug treatment
The following compounds are shown together with reported IC50 values.
Please give the number followed by its unit.

INSERT INTO assay_data (compound, test_system, assay_readout, result) VALUES
  ('CCOC(=O)N1CCC(n2ncc3c(N4CCOCC4)nc(-c4ccc(NC(=O)NCCO)cc4)nc32)CC1', 'breast line MDA468', 'IC50', '250 nM'),
  ('O=C(Nc1ccc(-c2nc(N3CCOCC3)c3cnn(C4CCN(Cc5ccccc5)CC4)c3n2)cc1)NC1CC1 [Example 311]', 'breast line MDA468', 'IC50', '1100 nM');

// next entry
Item COC(=O)Nc1ccc(-c2nc(N3CCOCC3)c3cnn(C4CCN(CC(N)=O)CC4)c3n2)cc1 has what recorded IC50?
3200 nM

---

Molecular target: PI3K (Homo sapiens, UniProt P42336)
Test: Fluorescence polarization assay for PI3K;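 note: PI3K kinase reaction on PIP2 with ATP, 30-60 min, product sensed by GST-GRP with red probe in fluorescence polarization (mP), controls without enzyme and at zero time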
Type: biochemical
Settings: PI3Kα; read-out: PI3Kα IC50
pIC50: −log10 of the molar value.
Decide using pIC50: a value greater than or equal to 7 is satisfied, a smaller one is not satisfied.

INSERT INTO results (compound, category) VALUES
  ('CNC(=O)Nc1ccc(-c2nc(N3CCOCC3)c3cnn(C4CCN(C(=O)c5cccnc5)CC4)c3n2)cn1 [Compound 725]', 'satisfied'),
  ('Nc1ccc(-c2nc(N3CCOCC3)c3cnn(C4CCC5(CC4)OCCO5)c3n2)cc1 [Compound 565]', 'not satisfied'),
  ('COC(=O)Nc1ccc(-c2nc(N3CCOCC3)c3cnn(C4CCN(C(=O)c5ccccc5F)CC4)c3n2)cc1 [Compound 687]', 'not satisfied'),
  ('O=C(Nc1ccc(-c2nc(N3CCOCC3)c3cnn(C4CCNCC4)c3n2)cc1)NC1CC1', 'not satisfied'),
  ('O=C(NCCF)Nc1ccc(-c2nc(N3CCOCC3)c3cnn(-c4ccccc4)c3n2)cc1 [Compound 540]', 'not satisfied');

# check: pIC50 of CC(C)C(=O)N1CCC(n2ncc3c(N4CCOCC4)nc(-c4ccc(NC(=O)Nc5cccnc5)cc4)nc32)CC1 is greater than or equal to 7
satisfied

# check: pIC50 of O=C(c1ncccc1O)N1CCC(n2ncc3c(N4CCOCC4)nc(-c4ccc5[nH]ccc5c4)nc32)CC1 is greater than or equal to 7
not satisfied

# check: pIC50 of COc1cc(-c2nc(N3CCOCC3)c3cnn(C4CCN(Cc5ccccc5)CC4)c3n2)ccc1N is greater than or equal to 7
not satisfied
